// BTK WT (Homo sapiens (Human), UniProt Q06187) pIC50 records
Numbers only, as −log10 of the molar value.

[
  {
    "compound": "C=CC(=O)N1CCC[C@H](N(C)c2nc(-c3cnn(C)c3)c3c(c2F)CNC3=O)C1 [Compound G-112]",
    "endpoint_name": "pIC50",
    "measured_result": 7.74
  },
  {
    "compound": "C=CC(=O)N1CCCC(Nc2nc(Nc3ccc(OCCOC)cc3)c3c(c2F)CNC3=O)C1 (stereo not drawn) [Compound G-2]",
    "endpoint_name": "pIC50",
    "measured_result": 8.52
  },
  {
    "compound": "C=CC(=O)N1CCCC(Nc2nc3c(c(Nc4cnn(C)c4)n2)C(=O)NC3)C1 (stereo not drawn) [Compound G-59]",
    "endpoint_name": "pIC50",
    "measured_result": 7.89
  },
  {
    "compound": "C=CC(=O)N1CCC[C@@H](Nc2nc(Nc3ccc(CN4CCOCC4)cc3)c3c(c2F)CNC3=O)C1 [Compound G-97]",
    "endpoint_name": "pIC50",
    "measured_result": 8.30
  },
  {
    "compound": "C=CC(=O)N1CCC[C@@H](Nc2nc(Nc3ccc(N4CCN(C5COC5)C[C@@H]4C)c(F)c3)c3c(c2F)CNC3=O)C1 [Compound G-91]",
    "endpoint_name": "pIC50",
    "measured_result": 8.30
  }
]

Would you mind giving pIC50 for every compound in the list below?
1. C=CC(=O)N1CCCC(Nc2nc(Nc3ccc(N4CCOCC4C)c(F)c3)c3c(c2F)CNC3=O)C1 (stereo not drawn) [Compound G-42]
2. C=CC(=O)N1CCCC(Nc2nc(Nc3ccc(N4CCOCC4)cc3)c3c(c2F)CNC3=O)C1 (stereo not drawn) [Compound G-14]

[out]
1: 8.30; 2: 8.52

---

// wild-type EGFR kinase (Homo sapiens (Human), UniProt P00533) pIC50 records
Numbers only, as −log10 of the molar value.

As a guide, the following entries are already answered.
[
  {
    "molecule": "C=CC(=O)N1CCCC(Nc2nc(Nc3ccc(N4CCOCC4=O)cc3)c3c(c2F)CNC3=O)C1 (stereo not shown) [Compound G-17]",
    "measured_on": "wild-type EGFR kinase (Homo sapiens (Human), UniProt P00533)",
    "pIC50": 5.82
  },
  {
    "molecule": "C=CC(=O)N1CCCC(Nc2nc(-c3cnc(C)s3)c3c(c2F)CNC3=O)C1 (stereo not shown) [Compound G-53]",
    "measured_on": "wild-type EGFR kinase (Homo sapiens (Human), UniProt P00533)",
    "pIC50": 5.13
  },
  {
    "molecule": "C=CC(=O)N1CCCC(Nc2nc(Nc3cnn(C)c3)c3c(c2F)CNC3=O)C1 (stereo not shown) [Compound G-38]",
    "measured_on": "wild-type EGFR kinase (Homo sapiens (Human), UniProt P00533)",
    "pIC50": 5.89
  }
]

Would you mind giving pIC50 for every molecule in the list below?
1. C=CC(=O)N1CCCC(Nc2nc(Nc3ccc(N4CCOCC4)c(Cl)c3)c3c(c2F)CNC3=O)C1 (stereo not shown) [Compound G-39]
2. C=CC(=O)NC1CN(c2nc(Nc3cnn(C)c3)c3c(c2F)CNC3=O)C1 [Compound G-85]
3. C=CC(=O)N1CCCC(N(C)c2nc(Nc3cc(C)ns3)c3c(c2F)CNC3=O)C1 (stereo not shown) [Compound G-72]
4. C=CC(=O)N1CCCC(Nc2nc3c(c(Nc4cnn(C)c4)n2)C(=O)NC3)C1 (stereo not shown) [Compound G-59]
5. C=CC(=O)N1CCCC(Nc2nc(Nc3ccc(N4CCN(C5COC5)CC4C)cc3)c3c(c2F)CNC3=O)C1 (stereo not shown) [Compound G-34]
6. C=CC(=O)N1CCCCC(Nc2nc(Nc3ccc(N4CCOCC4)cc3)c3c(c2F)CNC3=O)C1 (stereo not shown) [Compound G-27]
7. C=CC(=O)N1CCCC(Nc2nc(Nc3ccc(N4CCOCC4)c(F)c3)c3c(c2F)CNC3=O)C1 (stereo not shown) [Compound G-33]

[out]
[5.20, 5.95, 5.78, 5.99, 5.50, 5.43, 5.14]

[in] Looking for the measured pIC50 of C=CC(=O)N1CCCCC(N(C)c2nc(Nc3ccc(N4CCOCC4)cc3)c3c(c2F)CNC3=O)C1 (stereo not shown) [Compound G-73] , can you help?
[out] 5.81

---

method_summary: in vivo
condition_parameters: male, ICR, mouse, in vivo, po, 30 mg/kg
endpoint_name: Tmax (min)
Give bare numbers, in min.

[
  {
    "compound": "C=CC(=O)N1CCC[C@@H](Nc2nc(Nc3ccc(N4CCN(C5COC5)C[C@@H]4C)c(F)c3)c3c(c2F)CNC3=O)C1",
    "Tmax [min]": 15
  },
  {
    "compound": "C=CC(=O)N1CCC[C@@H](Nc2nc(-c3cnn(C)c3)c3c(c2F)CNC3=O)C1",
    "Tmax [min]": 4.8
  }
]

Now turn to the next compound.
[in] Looking for the measured Tmax of C=CC(=O)N1CCCC(Nc2nc(-c3cnn(C)c3)c3c(c2F)CNC3=O)C1 (stereo not drawn) , can you help?
[out] 4.8

---

// BTK WT (Homo sapiens (Human)) pIC50 records
Answers are plain numbers, as −log10 of the molar value.

[
  {
    "compound": "C=CC(=O)N1CCCC(Nc2nc(Nc3ccc(N4CCOCC4C)cc3)c3c(c2F)CNC3=O)C1 (stereo not shown) [Compound G-32]",
    "measured_result": 8.30
  },
  {
    "compound": "C=CC(=O)N1CCC[C@@H](Nc2cc3c(c(Nc4ccc(N5CCOCC5)cc4)n2)C(=O)NC3)C1 [Compound G-107]",
    "measured_result": 8.30
  }
]

Would you mind giving pIC50 for every compound in the list below?
1. C=CC(=O)N1CCCC(Nc2nc(Nc3ccc(N4CCN(C5COC5)CC4C)cc3)c3c(c2F)CNC3=O)C1 (stereo not shown) [Compound G-34]
2. C=CC(=O)N1CCCC(N(C)c2nc(-c3cnn(C(F)F)c3)c3c(c2F)CNC3=O)C1 (stereo not shown) [Compound G-63]
3. C=CC(=O)N1CCCC(Nc2nc(Nc3cnn(C4CCOCC4)c3)c3c(c2F)CNC3=O)C1 (stereo not shown) [Compound G-10]
4. C=CC(=O)N1CCCC(Nc2nc(-c3cnc(C)s3)c3c(c2F)CNC3=O)C1 (stereo not shown) [Compound G-53]
5. C=CC(=O)NC1CN(c2nc(Nc3cnn(C)c3)c3c(c2F)CNC3=O)C1 [Compound G-85]
6. C=CC(=O)N1CCCC(Nc2nc(Nc3cnn(C)c3)c3c(c2F)CNC3=O)C1 (stereo not shown) [Compound G-25]

[out]
8.30
7.60
8.52
7.29
7.49
8.70

Would you mind giving pIC50 for every compound in the list below?
1. C=CC(=O)N1CCCC(N(C)c2nc(Nc3cc(C)ns3)c3c(c2F)CNC3=O)C1 (stereo not shown) [Compound G-72]
2. C=CC(=O)N1CCCC(Nc2nc(Nc3ccc(N4CCOCC4)c(Cl)c3)c3c(c2F)CNC3=O)C1 (stereo not shown) [Compound G-39]
3. C=CC(=O)N1CCCC(N(C)c2nc(Nc3cnn(C)c3)c3c(c2F)CNC3=O)C1 (stereo not shown) [Compound G-70]
4. C=CC(=O)N1CCCC(N(C)c2nc(-c3cnc(C)s3)c3c(c2F)CNC3=O)C1 (stereo not shown) [Compound G-66]
5. C=CC(=O)N1CCCC(Nc2nc(-c3cnn(C)c3)c3c(c2F)CNC3=O)C1 (stereo not shown) [Compound G-7]
6. C=CC(=O)N1CCCC(Nc2nc3c(c(-c4cnn(C)c4)n2)C(=O)NC3)C1 (stereo not shown) [Compound G-58]
7. C=CC(=O)N1CCCC(Nc2nc(-c3cnn(C)c3)c3c(c2F)CNC3=O)C1 (stereo not shown) [Compound G-54]

[out]
8.30
8.70
8.30
7.82
7.46
7.10
7.82

Would you mind giving pIC50 for every compound in the list below?
1. C=CC(=O)N1CCCC(Nc2nc(Nc3ccc(N4CCN(C5COC5)CC4C)cn3)c3c(c2F)CNC3=O)C1 (stereo not shown) [Compound G-22]
2. C=CC(=O)N1CCCC(Nc2nc(Nc3cc(C)ns3)c3c(c2F)CNC3=O)C1 (stereo not shown) [Compound G-23]
3. C=CC(=O)N1CCC(Nc2nc(Nc3ccc(OCCOC)cc3)c3c(c2F)CNC3=O)C1 (stereo not shown) [Compound G-9]
4. C=CC(=O)N1CCCC(Nc2nc(Nc3ccc(N4CCC(O)C(C)(C)C4)cn3)c3c(c2F)CNC3=O)C1 (stereo not shown) [Compound G-21]
5. C=CC(=O)N1CCCC(Nc2nc(Nc3ccc(OCCOC)cc3)c3c(c2F)CNC3=O)CC1 (stereo not shown) [Compound G-4]
6. C=CC(=O)N1CCCC(Nc2nc(Nc3ccc(N4CCN(C)CC4)cc3)c3c(c2F)CNC3=O)C1 (stereo not shown) [Compound G-11]
7. C=CC(=O)N1CCC2CN(c3nc(Nc4cnn(C)c4)c4c(c3F)CNC4=O)CC21 (stereo not shown) [Compound G-87]
8. C=CC(=O)N1CCCC(Nc2nc(Nc3cnn(C4CCS(=O)(=O)CC4)c3)c3c(c2F)CNC3=O)C1 (stereo not shown) [Compound G-13]

[out]
[7.18, 8.30, 8.15, 7.23, 8.15, 9.00, 9.00, 8.52]
